Values from patent US12258327B2

# Measured on: EGFR L858R/C797S (Homo sapiens, UniProt P00533, C797S/L858R)
# Sequence (P00533 25-1210 C797S/L858R): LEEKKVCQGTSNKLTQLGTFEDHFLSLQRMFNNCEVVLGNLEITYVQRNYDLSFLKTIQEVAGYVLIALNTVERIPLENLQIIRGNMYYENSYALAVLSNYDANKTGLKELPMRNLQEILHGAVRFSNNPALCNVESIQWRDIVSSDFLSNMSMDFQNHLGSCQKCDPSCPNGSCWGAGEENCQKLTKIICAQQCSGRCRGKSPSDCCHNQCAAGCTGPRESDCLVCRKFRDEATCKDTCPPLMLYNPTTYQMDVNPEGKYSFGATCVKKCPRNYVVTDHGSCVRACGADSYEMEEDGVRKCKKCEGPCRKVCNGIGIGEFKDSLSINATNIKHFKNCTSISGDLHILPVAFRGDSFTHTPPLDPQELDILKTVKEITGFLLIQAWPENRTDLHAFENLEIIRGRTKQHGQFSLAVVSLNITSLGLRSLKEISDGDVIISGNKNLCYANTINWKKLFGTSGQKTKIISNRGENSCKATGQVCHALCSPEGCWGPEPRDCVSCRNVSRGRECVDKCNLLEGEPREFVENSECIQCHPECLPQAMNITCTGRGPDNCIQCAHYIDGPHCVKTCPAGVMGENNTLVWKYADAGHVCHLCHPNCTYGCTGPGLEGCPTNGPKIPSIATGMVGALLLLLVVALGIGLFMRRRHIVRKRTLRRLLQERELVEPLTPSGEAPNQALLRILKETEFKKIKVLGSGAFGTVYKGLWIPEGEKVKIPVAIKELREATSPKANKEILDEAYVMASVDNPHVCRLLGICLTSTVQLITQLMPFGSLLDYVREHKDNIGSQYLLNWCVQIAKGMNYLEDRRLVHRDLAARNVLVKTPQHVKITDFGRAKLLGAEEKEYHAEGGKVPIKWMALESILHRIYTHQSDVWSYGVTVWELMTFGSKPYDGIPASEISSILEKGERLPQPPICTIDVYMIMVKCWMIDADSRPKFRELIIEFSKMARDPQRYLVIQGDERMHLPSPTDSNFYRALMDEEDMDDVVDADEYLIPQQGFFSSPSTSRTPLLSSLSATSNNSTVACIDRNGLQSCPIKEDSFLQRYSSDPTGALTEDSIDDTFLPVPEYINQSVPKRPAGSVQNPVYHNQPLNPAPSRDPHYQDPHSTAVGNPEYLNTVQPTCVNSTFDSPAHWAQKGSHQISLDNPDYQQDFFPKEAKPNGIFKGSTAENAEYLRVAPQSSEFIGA
# Measurement description: Biochemical EGFR kinase assay (Lance Ultra TR-FRET), double mutant L858R/C797S
# Measurement setup: Km ATP; read-out: IC50 L858R/C797S (nM) Km ATP
Outcome measure: log10 of IC50 (log10 of the value in nM)

1. Cn1ccc(-c2cnc(Nc3ccnc(-c4cnn(S(=O)(=O)C5CC5)c4)n3)cc2NC[C@H]2CC[C@](C)(O)CC2)n1	0.28
2. Cn1ccc(-c2cnc(Nc3ccnc(-c4cnn(S(=O)(=O)C5CC5)c4)n3)cc2NC[C@H]2CC[C@@H](O)C2)n1	-0.70
3. CN(C)C[C@H]1CC[C@@H](Nc2cc(Nc3ccnc(-c4cnn(S(=O)(=O)C5CC5)c4)n3)ncc2-c2ccn(C(F)F)n2)CC1	-1.00
4. CN(CC(F)F)C[C@H]1CC[C@@H](Nc2cc(Nc3ccnc(-c4cnn(S(=O)(=O)C5CC5)c4)n3)ncc2-c2ccn(C)n2)CC1	0.81
5. CNC[C@H]1CC[C@H](CNc2cc(Nc3ccnc(-c4cnn(S(=O)(=O)C5CC5)c4)n3)ncc2-c2ccn(C(F)F)n2)CC1	-0.40
6. CN(C)C(=O)C[C@H]1CC[C@@H](Nc2cc(Nc3ccnc(-c4cnn(S(=O)(=O)C5CC5)c4)n3)ncc2-c2ccn(C)n2)CC1	-1.00

---

# Measured on: EGFR del19/T790M/C797S (Homo sapiens, UniProt P00533, C797S/DEL746-750/T790M)
# Sequence (P00533 with tags, fused parts or gaps DEL746-750/T790M/C797S): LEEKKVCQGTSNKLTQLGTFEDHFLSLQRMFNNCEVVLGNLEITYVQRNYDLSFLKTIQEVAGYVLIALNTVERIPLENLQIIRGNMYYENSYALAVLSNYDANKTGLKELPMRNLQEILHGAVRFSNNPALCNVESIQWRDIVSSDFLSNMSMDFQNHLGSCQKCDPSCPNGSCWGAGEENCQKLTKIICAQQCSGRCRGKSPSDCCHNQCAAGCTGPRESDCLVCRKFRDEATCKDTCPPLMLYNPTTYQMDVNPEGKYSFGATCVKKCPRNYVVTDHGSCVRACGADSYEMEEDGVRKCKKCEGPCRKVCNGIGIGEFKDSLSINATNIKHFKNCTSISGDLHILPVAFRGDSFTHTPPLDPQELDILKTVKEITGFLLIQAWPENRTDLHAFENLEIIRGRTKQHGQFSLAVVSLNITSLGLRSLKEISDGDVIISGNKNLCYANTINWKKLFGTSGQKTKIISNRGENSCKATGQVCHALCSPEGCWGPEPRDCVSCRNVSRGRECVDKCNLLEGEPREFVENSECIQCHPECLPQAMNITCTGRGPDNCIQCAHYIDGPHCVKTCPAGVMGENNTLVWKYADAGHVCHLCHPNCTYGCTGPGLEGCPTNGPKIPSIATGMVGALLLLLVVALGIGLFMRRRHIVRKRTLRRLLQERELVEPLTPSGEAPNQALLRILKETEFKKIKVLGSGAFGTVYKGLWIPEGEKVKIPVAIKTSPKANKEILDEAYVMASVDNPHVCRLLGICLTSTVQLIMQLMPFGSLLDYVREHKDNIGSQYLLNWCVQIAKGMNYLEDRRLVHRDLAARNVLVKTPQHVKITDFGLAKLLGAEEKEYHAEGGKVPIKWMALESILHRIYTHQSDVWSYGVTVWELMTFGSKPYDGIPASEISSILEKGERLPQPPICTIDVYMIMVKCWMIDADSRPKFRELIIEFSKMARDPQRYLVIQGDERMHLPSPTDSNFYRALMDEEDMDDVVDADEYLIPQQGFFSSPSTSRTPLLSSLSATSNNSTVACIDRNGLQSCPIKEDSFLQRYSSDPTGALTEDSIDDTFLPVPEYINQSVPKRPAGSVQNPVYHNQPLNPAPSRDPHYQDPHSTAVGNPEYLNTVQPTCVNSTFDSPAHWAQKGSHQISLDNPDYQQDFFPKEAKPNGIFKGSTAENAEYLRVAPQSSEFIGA
# Measurement description: Biochemical EGFR kinase assay (Lance Ultra TR-FRET), triple mutant del19/T790M/C797S
# Measurement setup: Km ATP; read-out: IC50 del19/T790M/C797S (nM) Km ATP
Measured IC50 of individual entries
Outcome measure: IC50 (nM)

1. Cn1nc(-c2cnc(Nc3ccnc(-c4cnn(S(=O)(=O)C5CC5)c4)n3)cc2N[C@H]2CC[C@@H](CCO)CC2)cc1C(F)(F)F [Example 262]	0.1
2. O=S(=O)(C1CC1)n1cc(-c2nccc(Nc3cc(N[C@H]4CC[C@@H](NCCF)CC4)c(-c4nc(C(F)F)cs4)cn3)n2)cn1 [Example 123]	0.3
3. Cn1nc(-c2cnc(Nc3ccnc(-c4cnn(S(=O)(=O)C5CC5)c4)n3)cc2N[C@H]2CC[C@H](CCO)CC2)cc1C(F)(F)F [Example 263]	0.3

---

# Measured on: EGFR L858R/C797S (Homo sapiens, UniProt P00533, C797S/L858R)
# Measurement description: Biochemical EGFR kinase assay (Lance Ultra TR-FRET), double mutant L858R/C797S
# Measurement setup: IC50 L858R/C797S (nM) 100 μM ATP, 100 μM ATP
Outcome measure: IC50

1) Cc1cc(-c2cnc(Nc3ccnc(-c4cnn(S(=O)(=O)C5CC5)c4)n3)cc2N[C@H]2CC[C@@H](CO)CC2)nn1C [Example 280]	3.8 nM
2) CN(C)C[C@H]1C[C@@H](CNc2cc(Nc3ccnc(-c4cnn(S(=O)(=O)C5CC5)c4)n3)ncc2-c2ccn(C)n2)C1 [Example 234]	8.7 nM
3) CC(C)(O)[C@H]1CC[C@@H](Nc2cc(Nc3ccnc(-c4cnn(S(=O)(=O)C5CC5)c4)n3)ncc2-c2ccn(CC(F)F)n2)CC1 [Example 243]	10 nM
4) CCS(=O)(=O)n1cc(-c2nccc(Nc3cc(N[C@H]4CC[C@@](C)(O)CC4)c(-c4ccn(C(F)F)n4)cn3)n2)cn1 [Example 308]	4.1 nM
5) CC(C)(CO)CNc1cc(Nc2ccnc(-c3cnn(S(=O)(=O)C4CC4)c3)n2)ncc1-c1csc(C(C)(C)O)n1 [Example 90]	1490 nM
6) CN[C@H]1CC[C@@H](Oc2cc(Nc3ccnc(-c4cnn(S(=O)(=O)C5CC5)c4)n3)ncc2-c2ccn(C(F)F)n2)CC1 [Example 65]	622 nM
7) CC(O)C(C)(C)Nc1cc(Nc2ccnc(-c3cnn(S(=O)(=O)C4CC4)c3)n2)ncc1-c1ccn(C)n1 (centres unmarked) [Example 95]	45.2 nM
8) O=S(=O)(C1CC1)n1cc(-c2nccc(Nc3cc(N[C@H]4CC[C@@H](O)C4)c(-c4ccn(C(F)F)n4)cn3)n2)cn1 [Example 14]	14.2 nM
9) O=S(=O)(C1CC1)n1cc(-c2nccc(Nc3cc(N[C@H]4CC[C@@H](NCC(F)F)CC4)c(-c4cc5n(n4)CCCC5)cn3)n2)cn1 [Example 63]	7.7 nM
10) Cc1ncc(-c2cnc(Nc3ccnc(-c4cnn(S(=O)(=O)C5CC5)c4)n3)cc2N2CCC(O)CC2)s1 [Example 89]	232 nM
11) O=S(=O)(C1CC1)n1cc(-c2nccc(Nc3cc(NCC4CCC(O)C4)c(-c4ccn(C(F)F)n4)cn3)n2)cn1 (centres unmarked) [Example 33]	13.5 nM
12) CC(C)c1cc(-c2cnc(Nc3ccnc(-c4cnn(S(=O)(=O)C5CC5)c4)n3)cc2N[C@H]2CC[C@@](C)(O)CC2)on1 [Example 64]	21 nM
13) CC1(O)CCC(Nc2cc(Nc3ccnc(-c4cnn(C5CCCO5)c4)n3)ncc2-c2ccn(C(F)F)n2)CC1 (centres unmarked) [Example 318]	277 nM
14) Cn1nc(-c2cnc(Nc3ccnc(-c4cnn(S(=O)(=O)C5CC5)c4)n3)cc2N[C@H]2CC[C@@H](C(C)(C)O)CC2)cc1C(C)(C)O [Example 298]	1.7 nM
15) Cc1cc(-c2cnc(Nc3ccnc(-c4cnn(S(=O)(=O)C5CC5)c4)n3)cc2N[C@H]2CC[C@@H](C(C)(C)O)CC2)nn1C [Example 281]	40.4 nM
16) CC(C)(O)[C@H]1CC[C@@H](Nc2cc(Nc3ccnc(-c4cnn(S(=O)(=O)C5CC5)c4)n3)ncc2-c2ccn(CC(F)(F)F)n2)CC1 [Example 265]	187 nM
17) O=S(=O)(C1CC1)n1cc(-c2nccc(Nc3cc(NCCCn4ccnc4)c(-c4ccn(C(F)F)n4)cn3)n2)cn1 [Example 41]	> 10000 nM
18) C[C@]1(O)CC[C@@H](Nc2cc(Nc3ccnc(-c4cnn(S(=O)(=O)C5CC5)c4)n3)ncc2-c2ccn(C3COC3)n2)CC1 [Example 292]	6.6 nM
19) Cn1ccc(-c2cnc(Nc3ccnc(-c4cnn(S(=O)(=O)C5CC5)c4)n3)cc2N[C@H]2CC[C@]3(CCC(=O)N3)CC2)n1 [Example 44]	0.8 nM
20) Cn1ccc(-c2cnc(Nc3ccnc(-c4cnn(S(=O)(=O)C5CC5)c4)n3)cc2N[C@H]2CC[C@@H](N(C)C)CC2)n1 [Example 124]	9.6 nM
21) CN(C)CCCn1ccc(-c2cnc(Nc3ccnc(-c4cnn(S(=O)(=O)C5CC5)c4)n3)cc2N[C@H]2CC[C@@H](CO)CC2)n1 [Example 296]	0.5 nM
22) O=S(=O)(C1CC1)n1cc(-c2nccc(Nc3cc(N[C@H]4CC[C@H](CCO)CC4)c(-c4ccn(CC(F)(F)F)n4)cn3)n2)cn1 [Example 270]	35.4 nM
23) CN(C)C(=O)[C@H]1CC[C@@H](Nc2cc(Nc3ccnc(-c4cnn(S(=O)(=O)C5CC5)c4)n3)ncc2-c2ccn(C(F)F)n2)CC1 [Example 201]	2.9 nM
24) O=S(=O)(C1CC1)n1cc(-c2nccc(Nc3cc(NC[C@H]4CC[C@@H](O)CC4)c(-c4ccn(C(F)F)n4)cn3)n2)cn1 [Example 30]	41.3 nM
25) O=S(=O)(C1CC1)n1cc(-c2nccc(Nc3cc(OC4CCC(O)CC4)c(-c4ccn(C(F)F)n4)cn3)n2)cn1 (centres unmarked) [Example 66]	80.1 nM
26) O=S(=O)(C1CC1)n1cc(-c2nccc(Nc3cc(N[C@H]4CC[C@@H](CO)CC4)c(-c4ccn(CC(F)F)n4)cn3)n2)cn1 [Example 244]	1.9 nM
